# Format: physicochemical
# condition context: pH 4.5, 40° C., 10 days
Where no end group is shown, it is not given here. [ ]: non-standard residue; d: D form. code ∗ = not defined here
readout kind: 10 days Purity (%)
Please format your answer as a value with the unit trailing.

Input HdAEGTFTTSDL SKQNleEEEAVR LFIEWLKQGG PSSGAPPPC(AM) [Sample 9-2] , output reported 10 days Purity (%).
98.8%

Input HdAEGTFTSDL SKQMEEEAVR LFIEWLKNGG PSSGAPPPC-PEG40K [Sample 4] , output reported 10 days Purity (%).
99.3%

Input HGEGTFTSDLSKQMEEEAVRLFIEWLKQGGPSSGAPPPK* [Sample 5] , output reported 10 days Purity (%).
95.1%

Input HdAEGTFTSDL SKQNleEEEAVR LFIEWLKQGG PSSGAPPPS-NH2 [Sample 3] , output reported 10 days Purity (%).
98.7%

Input HdAEGTFTSDL SKQMEEEAVR LFIEWLVKGG PSSGAPPPK* (H[dA]EGTFTSDLSKQMEEEAVRLFIEWLVKGGPSSGAPPPK(code ∗); reading uncertain; also: C-terminal modification (*)) [Sample 11] , output reported 10 days Purity (%).
95.9%

Input HdAEGTFTSDL SKQMEEEAVR LFIEWLKNGG PSSGAPPPC-NH2 [Sample 2-1] , output reported 10 days Purity (%).
89.6%

Input HdAEGTFTTSDL SKQNleEEEAVR LFIEWLKQGG PSSGAPPPC-PEG40K [Sample 13] , output reported 10 days Purity (%).
99.7%

###

# Assay type: physicochemical
# condition context: pH 4.5, 40° C., 15 days, compared with the corresponding sample at 0 day
Where no end group is shown, it is not given here. [ ]: non-standard residue; d: D form. code ∗ = not defined here
Exercise: for every item that follows, state its recorded 15 days Relative Purity (%).
Write the value in % as a bare number.

Input HGEGTFTSDLSKQMEEEAVRLFIEWLKQGGPSSGAPPPK* [Sample 5] , output reported 15 days Relative Purity (%).
95.73

Input HdAEGTFTSDL SKQNleEEEAVR LFIEWLKQGG PSSGAPPPS-NH2 [Sample 3] , output reported 15 days Relative Purity (%).
99.70

Input HdAEGTFTSDL SKQMEEEAVR LFIEWLVKGG PSSGAPPPK* (H[dA]EGTFTSDLSKQMEEEAVRLFIEWLVKGGPSSGAPPPK(code ∗); reading uncertain; also: C-terminal modification (*)) [Sample 11] , output reported 15 days Relative Purity (%).
96.44

Input HdAEGTFTTSDL SKQNleEEEAVR LFIEWLKQGG PSSGAPPPC(AM) [Sample 9-2] , output reported 15 days Relative Purity (%).
99.80

Input HdAEGTFTTSDL SKQNleEEEAVR LFIEWLKQGG PSSGAPPPC-PEG40K [Sample 13] , output reported 15 days Relative Purity (%).
99.70

Input HdAEGTFTSDL SKQMEEEAVR LFIEWLKNGG PSSGAPPPC-NH2 [Sample 2-1] , output reported 15 days Relative Purity (%).
88.47

Input HdAEGTFTSDL SKQMEEEAVR LFIEWLKNGG PSSGAPPPC-PEG40K [Sample 4] , output reported 15 days Relative Purity (%).
99.30

###

Exercise: for every item that follows, state its recorded 0 day Purity (%).
# Assay type: physicochemical
# condition context: pH 4.5, 40° C., 0 day
Where no end group is shown, it is not given here. [ ]: non-standard residue; d: D form. code ∗ = not defined here
Write the value in % as a bare number.

Input HdAEGTFTSDL SKQMEEEAVR LFIEWLVKGG PSSGAPPPK* (H[dA]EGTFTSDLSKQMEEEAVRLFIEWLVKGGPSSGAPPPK(code ∗); reading uncertain; also: C-terminal modification (*)) [Sample 11] , output reported 0 day Purity (%).
98.3

Input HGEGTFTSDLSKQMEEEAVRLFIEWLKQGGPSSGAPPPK* [Sample 5] , output reported 0 day Purity (%).
98.3

Input HdAEGTFTSDL SKQMEEEAVR LFIEWLKNGG PSSGAPPPC-PEG40K [Sample 4] , output reported 0 day Purity (%).
99.7

Input HdAEGTFTTSDL SKQNleEEEAVR LFIEWLKQGG PSSGAPPPC(AM) [Sample 9-2] , output reported 0 day Purity (%).
99.0
